Would you kindly list pKi for each of these compounds?
Structures can show the parent of a compound that is named as a salt.
Convention used: pKi is expressed as -log10 of the molar concentration.

Entry COC(=O)Nc1ccc2c(c1)NC(=O)[C@H](C)CCC[C@H](NC(=O)c1cnn(C3CCCNC3)c1)c1cc-2ccn1 (stereo partly shown) ; assay system human Factor XIa (Homo sapiens (Human), UniProt P03951); pKi recorded at 7.16

Entry COC(=O)Nc1ccc2c(c1)NC(=O)[C@H](C)C(O)CC[C@H](NC(=O)c1cnn(-c3cccc(Cl)c3F)c1C)c1cc-2ccn1 (single isomer, unassigned) [Example 177, TFA salt] ; assay system human Factor XIa (Homo sapiens (Human), UniProt P03951); pKi recorded at 7.26
